Substrate: N[C@@H](Cc1ccccc1)C(=O)O
Test: purified protein
Assay type: biochemical, Escherichia coli
Conditions: co-substrate α-ketoglutarate (fixed, 0.1563–1.25 mM range), 16 µM PLP, 5 mM NAD+, 100 mM potassium phosphate pH 8, 37 °C
Quantity Kind: kcat (s⁻¹)
A number alone suffices; assume s⁻¹.

Notebook: E. coli aspartate aminotransferase (AAT) (Escherichia coli K-12; K37F/N64Y/T43I) (protein, full-length, N-terminal His-tag, expressed in E. coli BL21-Gold (DE3), Ni-NTA purified; 90 kDa homodimer, PLP-dependent) MFENITAAPADPILGLADLFRADERPGKINLGIGVYFDETGKIPVLTSVKKAEQYLLENETTKYYLGIDGIPEFGRCTQELLFGKGSALINDKRARTAQTPGGTGALRVAADFLAKNTSVKRVWVSNPSWPNHKSVFNSAGLEVREYAYYDAENHTLDFDALINSLNEAQAGDVVLFHGCCHNPTGIDPTLEQWQTLAQLSVEKGWLPLFDFAYQGFARGLEEDAEGLRAFAAMHKELIVASSYSKNFGLYNERVGACTLVAADSETVDRAFSQMKAAIRANYSNPPAHGASVVATILSNDALRAIWEQELTDMRQRIQRMRQLFVNTLQEKGANRDFSFIIKQNGMFSFSGLTKEQVLRLREEFGVYAVASGRVNVAGMTPDNMAPLCEAIVAVL , kcat read as 17.3
